Ref: patent US20240400559A1

experiment summary: Solution state photophysical studies (absorption, emission, lifetime) in DMSO
Assay type: physicochemical
protocol conditions: in DMSO at RT, 10 μM
measured parameter: λmax (abs.) (nm)
I only need the number, in nm, no unit after it.

Illustrative cases are given below, each with its answer.
| compound | λmax (abs.) / nm |
| --- | --- |
| O=S(=O)([O-])C(F)(F)F.c1ccc(-c2cccc3c4ccccc4cc(-c4ccccc4)[n+]23)cc1 | 392 |
| COc1ccc(-c2cccc3c4cc(-c5cccc6ccccc56)ccc4cc(-c4ccccc4)[n+]23)cc1.O=S(=O)([O-])C(F)(F)F | 412 |
| COc1ccc(-c2cccc3c4cc(C)ccc4cc(-c4ccccc4)[n+]23)cc1.O=S(=O)([O-])C(F)(F)F | 409 |
| COc1ccc(-c2cccc3c4cc(OC)cc(OC)c4cc(-c4ccccc4)[n+]23)cc1.O=S(=O)([O-])C(F)(F)F | 430 |
| O=S(=O)([O-])C(F)(F)F.c1ccc(-c2cc3ccccc3c3cccc(-c4cc5ccccc5c5ccccc45)[n+]23)cc1 | 397 |
| COc1ccc(-c2cccc3c4ccccc4cc(-c4ccccc4)[n+]23)cc1.O=S(=O)([O-])C(F)(F)F | 404 |
| COc1ccc(-c2cccc3c4ccc(C)cc4cc(-c4ccccc4)[n+]23)cc1.O=S(=O)([O-])C(F)(F)F | 405 |
| COc1ccc(-c2cccc3c4cc(C)cc(C)c4cc(-c4ccccc4)[n+]23)cc1.O=S(=O)([O-])C(F)(F)F | 410 |

In: // lookup λmax (abs.) for COc1ccc(-c2cccc3c4cc(-c5ccccc5)ccc4cc(-c4ccccc4)[n+]23)cc1.O=S(=O)([O-])C(F)(F)F
Out: 417

In: For COc1ccc(-c2cccc3c4ccccc4cc(-c4cc(OC)cc(OC)c4)[n+]23)cc1.O=S(=O)([O-])C(F)(F)F then?
Out: 401

In: Field entry: COc1ccc(-c2cccc3c4ccccc4cc(-c4cccc5ccccc45)[n+]23)cc1.O=S(=O)([O-])C(F)(F)F
Out: 397

###

List of Stokes shift values.
experiment summary: Solution state photophysical studies (absorption, emission, lifetime) in DMSO
Format: physicochemical
protocol conditions: in DMSO at RT
Write the number in nm without appending the unit.

In: Given COc1ccc(-c2cccc3c4cc(-c5cccc6ccccc56)ccc4cc(-c4ccccc4)[n+]23)cc1.O=S(=O)([O-])C(F)(F)F , state its recorded Stokes shift.
Out: 140

In: Repeat for the following compound: COc1ccc(-c2cccc3c4cc(-c5ccccc5)ccc4cc(-c4ccccc4)[n+]23)cc1.O=S(=O)([O-])C(F)(F)F
Out: 129

In: Could you do the same for COc1ccc(-c2cccc3c4cc(OC)cc(OC)c4cc(-c4ccccc4)[n+]23)cc1.O=S(=O)([O-])C(F)(F)F , please?
Out: 172
